Values were extracted from patent US20260042755A1.

experimentalTarget: GPR6 (Homo sapiens)
Construct: expressed in transfected cells; host or cells: CHO cells
Sequence (P46095 whole entry): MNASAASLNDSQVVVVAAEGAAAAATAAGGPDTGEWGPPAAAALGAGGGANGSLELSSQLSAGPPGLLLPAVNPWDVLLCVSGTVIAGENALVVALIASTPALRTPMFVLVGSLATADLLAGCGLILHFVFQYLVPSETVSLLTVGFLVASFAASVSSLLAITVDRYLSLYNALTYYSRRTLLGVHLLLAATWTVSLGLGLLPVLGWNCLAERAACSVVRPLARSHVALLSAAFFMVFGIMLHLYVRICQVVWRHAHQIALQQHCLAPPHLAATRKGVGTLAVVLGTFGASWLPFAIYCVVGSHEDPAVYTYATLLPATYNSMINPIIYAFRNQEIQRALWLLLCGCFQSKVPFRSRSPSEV
assay: GPR6 antagonist functional cAMP assay (LANCE Ultra cAMP TR-FRET, CHO cells stably expressing GPR6)
Assay type: cell-based
appliedConditions: procedure of Example 24
Method: Example 56. GPR6 and GPR3 Antagonist Functional cAMP Assay CHO cells stably expressing GPR6 or GPR3 receptors were dissociated from cell culture flasks and incubated for 2 h at 37° C. in a 10 cm dish in a humidified incubator. […] To measure cAMP levels, LANCE® Ultra cAMP assay (Perkin Elmer), a homogeneous time-resolved fluorescence resonance energy transfer (TR-FRET) immunoassay was used following manufacturer's recommendations. […] FRET values were reported as readings obtained at 665 nm. […]
measuredMetric: IC50

Field: example entries. Status: answers known.
Problem: Quick one: IC50 of Cn1cc(-c2nc3cnc(Cl)cc3nc2N2CCC(Oc3ccc(F)cc3F)CC2)cn1 ?
Solution: 1000 to 30000 nM

Problem: Quick one: IC50 of CCn1cc(-c2nc3cnc(C(=O)C(C)(C)O)cc3nc2N2CCC(Oc3ccc(F)cc3F)CC2)cn1 ?
Solution: 100 to 1000 nM

More entries:
Problem: Quick one: IC50 of CC(=O)Nc1cc2nc(N3CCN(Cc4ccc(F)cc4F)CC3)c(-c3cnn(C)c3)nc2cn1 ?
Solution: 1000 to 30000 nM

Problem: Quick one: IC50 of Cn1cc(-c2nc3cnc(C(C)(O)C(C)(C)O)cc3nc2N2CCN(Cc3ccc(F)cc3F)CC2)cn1 (stereo not shown) ?
Solution: 100 to 1000 nM

Problem: Quick one: IC50 of CC(=O)N1CCc2nc(N3CCC(O)(Cc4ccc(F)cc4F)CC3)c(-c3cnn(C)c3)nc2C1 ?
Solution: 100 to 1000 nM

Problem: Quick one: IC50 of COCC(O)c1cc2nc(-c3cnn(C)c3)c(N3CCC(Oc4ccc(F)cc4F)CC3)nc2cn1 (stereo not shown) ?
Solution: < 100 nM

Problem: Quick one: IC50 of CC(=O)N1CCc2nc(N3CCN(Cc4c(F)cc(F)cc4F)CC3)c(-c3cnn(C)c3)nc2C1 ?
Solution: 1000 to 30000 nM

====

experimentalTarget: GPR3 (Homo sapiens, UniProt P46089)
Construct: expressed in transfected cells; host or cells: CHO cells
Sequence (P46089 whole entry, species assumed): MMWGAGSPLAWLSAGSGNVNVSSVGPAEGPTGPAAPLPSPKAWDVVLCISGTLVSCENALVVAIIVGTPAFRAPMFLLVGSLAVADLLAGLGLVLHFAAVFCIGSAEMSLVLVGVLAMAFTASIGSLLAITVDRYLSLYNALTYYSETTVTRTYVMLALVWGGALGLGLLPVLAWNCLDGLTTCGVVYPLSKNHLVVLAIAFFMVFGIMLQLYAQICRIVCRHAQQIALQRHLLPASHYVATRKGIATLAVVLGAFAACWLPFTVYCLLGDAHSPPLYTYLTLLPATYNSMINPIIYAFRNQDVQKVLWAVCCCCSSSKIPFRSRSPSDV
assay: GPR3 antagonist functional cAMP assay (LANCE Ultra cAMP TR-FRET, CHO cells stably expressing GPR3)
Type: cell-based
appliedConditions: procedure of Example 24
measuredMetric: IC50

Problem: Quick one: IC50 of Cn1cc(-c2nc3cnc([C@H](O)C(C)(C)O)cc3nc2N2CCC(=Cc3ccc(F)cc3F)CC2)cn1 (single isomer, unassigned) ?
Solution: 1 to 30 µM

Problem: Quick one: IC50 of COC[C@@](C)(O)c1cc2nc(-c3cnn(C)c3)c(N3CCC(Oc4ccc(F)cc4F)CC3)nc2cn1 (single isomer, unassigned) ?
Solution: 0.1 to 1 µM

Problem: Quick one: IC50 of CC(C)(O)[C@H](O)c1cc2nc(N3CCN(Cc4cc(F)ccc4F)CC3)c(-c3cnn(CF)c3)nc2cn1 (single isomer, unassigned) ?
Solution: 1 to 30 µM

Problem: Quick one: IC50 of CC(C)(O)[C@@](C)(O)c1cc2nc(N3CCN(Cc4ccccc4F)CC3)c(-c3cnn(C(F)F)c3)nc2cn1 (single isomer, unassigned) ?
Solution: 0.1 to 1 µM
